The reader will find reported EC50 values listed item by item below.
- target under test: WT/R232 STING protein (Homo sapiens, UniProt Q86WV6, H232R)
- Sequence (Q86WV6 whole entry H232R): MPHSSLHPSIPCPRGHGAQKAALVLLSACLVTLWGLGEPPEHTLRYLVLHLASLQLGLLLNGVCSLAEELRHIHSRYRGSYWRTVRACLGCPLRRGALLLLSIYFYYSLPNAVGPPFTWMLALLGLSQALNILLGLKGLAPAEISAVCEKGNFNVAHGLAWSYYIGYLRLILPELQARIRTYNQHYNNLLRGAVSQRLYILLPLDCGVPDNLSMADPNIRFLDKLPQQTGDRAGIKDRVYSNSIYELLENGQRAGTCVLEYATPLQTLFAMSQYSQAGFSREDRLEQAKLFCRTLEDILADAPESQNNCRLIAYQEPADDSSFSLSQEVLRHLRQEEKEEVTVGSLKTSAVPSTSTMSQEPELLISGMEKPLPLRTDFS
- assay info: Luciferase reporter assay in HEK293T-hSTING-Luciferase cells (R232)
- condition notes: 20 hr stimulation, EC50 range

Consider the worked cases shown below.
COc1cc(F)cc(CN2C(=O)C(C)(C)c3ccc(C(=O)NCc4c(F)cc(F)cc4F)cc32)c1: ≤ 1 µM
CC1(CCCO)C(=O)N(Cc2c(F)cccc2Cl)c2cc(C(=O)NCc3c(F)cc(F)cc3F)ccc21 (centres unmarked): > 10 µM

Ask | May I ask what EC50 has been recorded for CC1(C)C(=O)N(Cc2noc3ccccc23)c2cc(C(=O)NCc3c(F)cc(F)cc3F)ccc21 ?
Reply | ≤ 1 µM

Ask | May I ask what EC50 has been recorded for CC1(C)C(=O)N(Cc2cccc(C(N)=O)c2F)c2cc(C(=O)NCc3c(F)cc(F)cc3F)ccc21 ?
Reply | 1 to 10 µM

Ask | May I ask what EC50 has been recorded for Cc1cc(CN2C(=O)C(C)(C)c3ccc(C(=O)NCc4c(F)cc(F)cc4F)cc32)ccn1 ?
Reply | 1 to 10 µM

Ask | May I ask what EC50 has been recorded for CC1(C)C(=O)N(Cc2cc(F)cc(F)c2)c2cc(C(=O)NCc3c(F)cc(F)cc3F)cnc21 ?
Reply | 1 to 10 µM

Ask | May I ask what EC50 has been recorded for CC1(C)C(=O)N(Cc2ccccc2F)c2cc(C(=O)N(CC(=O)O)Cc3ccco3)ccc21 ?
Reply | > 10 µM

Ask | May I ask what EC50 has been recorded for CC1(C)C(=O)N(Cc2ccncc2)c2nc(C(=O)NCc3c(F)cc(F)cc3F)ccc21 ?
Reply | 1 to 10 µM

----------
- target under test: hSTING (HAQ) (Homo sapiens, UniProt Q86WV6, G230A/H232R/R293Q/R71H)
- Sequence (Q86WV6 whole entry R71H/G230A/H232R/R293Q): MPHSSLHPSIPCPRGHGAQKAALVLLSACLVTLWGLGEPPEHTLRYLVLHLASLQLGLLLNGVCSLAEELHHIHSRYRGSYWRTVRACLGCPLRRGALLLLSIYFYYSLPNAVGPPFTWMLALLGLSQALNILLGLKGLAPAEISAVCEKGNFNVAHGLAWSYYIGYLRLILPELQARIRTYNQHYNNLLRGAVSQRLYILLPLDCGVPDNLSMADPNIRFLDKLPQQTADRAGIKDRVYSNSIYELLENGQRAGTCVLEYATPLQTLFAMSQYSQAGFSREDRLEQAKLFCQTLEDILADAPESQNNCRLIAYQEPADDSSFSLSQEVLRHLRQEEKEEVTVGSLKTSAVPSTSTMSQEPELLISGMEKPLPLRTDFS
- assay info: Luciferase reporter assay in HEK293T-hSTING-Luciferase cells (HAQ polymorph)
- condition notes: EC50 range
pEC50: −log10 of the molar value.
quantity: pEC50

Cc1cc(CN2C(=O)C(C)(C)c3ccc(C(=O)NCc4c(F)cc(F)cc4F)cc32)n(C)n1 [Example 82]: 5.00 to 6.00
CC1(C#N)C(=O)N(Cc2cc(F)cc(F)c2)c2cc(C(=O)NCc3cc4ccccc4o3)ccc21 (stereo not shown) [Example 92]: 5.00 to 6.00
CCC1(Cl)C(=O)N(Cc2c(F)cccc2Cl)c2cc(C(=O)NCc3c(F)cc(F)cc3F)ccc21 (stereo not shown) [Example 155]: < 5.00
C=CCC1(C)C(=O)N(Cc2cc(C)nn2CC)c2cc(C(=O)NCc3c(F)cc(F)cc3F)ccc21 (stereo not shown) [Example 175]: 5.00 to 6.00
CC1(C)C(=O)N(Cc2c(F)cccc2Br)c2cc(C(=O)NCc3c(F)cc(F)cc3F)ccc21 [Example 108]: < 5.00

Ask | May I ask what pEC50 has been recorded for Cc1nn(C)c(CN2C(=O)C(C)(C)c3ccc(C(=O)NCc4cc5cc(F)ccc5o4)cc32)c1F [Example 115] ?
Reply | ≥ 6.00

Ask | May I ask what pEC50 has been recorded for CC1(C)C(=O)N(Cc2c(F)cccc2Cl)c2cc(C(=O)NCc3cc4cc(F)ccc4o3)ccc21 [Example 75] ?
Reply | ≥ 6.00

Ask | May I ask what pEC50 has been recorded for CC1(C)C(=O)N(Cc2cc(F)cc(F)c2)c2cc(C(=O)NCc3c(F)cc(F)cc3F)ccc21 [Example 5] ?
Reply | ≥ 6.00

----------
The reader will find reported EC50 values listed item by item below.
- target under test: WT/R232 STING protein (Homo sapiens, UniProt Q86WV6, H232R)
- Construct: host or cells: HEK293T
- assay info: Luciferase reporter assay in HEK293T-hSTING-Luciferase cells (R232)
- Assay type: cell-based
- condition notes: 20 hr stimulation, EC50 range

Consider the worked cases shown below.
Cc1nn(C)c(CN2C(=O)C(C)(C)c3ccc(C(=O)NCc4cc5ccccc5o4)cc32)c1Br [Example 112]: ≤ 1000 nM
CC1(C)C(=O)N(Cc2c(F)cccc2C#N)c2cc(C(=O)NCc3c(F)cc(F)cc3F)ccc21 [Example 76]: 1000 to 10000 nM
CC1(C)C(=O)N(Cc2c(F)cccc2Cl)c2cc(C(=O)NCc3cccc(Cl)c3)ccc21 [Example 9]: 1000 to 10000 nM
CC1(C)C(=O)N(Cc2c(F)cccc2Cl)c2cc(C(=O)NCc3ccccc3F)ccc21 [Example 72]: ≤ 1000 nM

Ask | Item Cn1c(=O)n(Cc2ccccc2Cl)c2cc(C(=O)NCc3ccco3)ccc21 [Example 202] with WT/R232 STING protein (Homo sapiens, UniProt Q86WV6, H232R) - EC50?
Reply | > 10000 nM

Ask | Item CC1(C)C(=O)N(Cc2c(F)cccc2Cl)c2cc(C(=O)NCc3nc4ccccc4o3)ccc21 [Example 30] with WT/R232 STING protein (Homo sapiens, UniProt Q86WV6, H232R) - EC50?
Reply | 1000 to 10000 nM

Ask | Item CC1(C)C(=O)N(Cc2cccc3c2OC(F)(F)O3)c2cc(C(=O)NCc3c(F)cc(F)cc3F)ccc21 [Example 105] with WT/R232 STING protein (Homo sapiens, UniProt Q86WV6, H232R) - EC50?
Reply | 1000 to 10000 nM

Ask | Item Cc1cccc(CN2C(=O)C(C)(C)c3ccc(C(=O)NCc4c(F)cc(F)cc4F)cc32)c1 [Example 18] with WT/R232 STING protein (Homo sapiens, UniProt Q86WV6, H232R) - EC50?
Reply | ≤ 1000 nM

----------
The reader will find reported pEC50 values listed item by item below.
- target under test: WT/R232 STING protein (Homo sapiens, UniProt Q86WV6, H232R)
- Construct: host or cells: HEK293T
- assay info: Luciferase reporter assay in HEK293T-hSTING-Luciferase cells (R232)
- Assay type: cell-based
- condition notes: 20 hr stimulation, EC50 range
pEC50: −log10 of the molar value.

Consider the worked cases shown below.
Cc1nn(C)c(CN2C(=O)C(C)(C)c3ccc(C(=O)NCc4c(F)cc(F)cc4F)cc32)c1Br: ≥ 6.00
CC1(O)C(=O)N(Cc2c(F)cccc2Cl)c2cc(C(=O)NCc3c(F)cc(F)cc3F)ccc21 (stereo not drawn): < 5.00
CC1(C)C(=O)N(Cc2ccc(C(N)=O)cc2F)c2cc(C(=O)NCc3c(F)cc(F)cc3F)ccc21: 5.00 to 6.00
Cc1cc(CN2C(=O)C(C)(C)c3ccc(C(=O)NCc4c(F)cc(F)cc4F)nc32)ccn1: 5.00 to 6.00
CC1(O)C(=O)N(Cc2cc(F)cc(F)c2)c2cc(C(=O)NCc3c(F)cc(F)cc3F)ccc21 (stereo not drawn): < 5.00

Ask | May I ask what pEC50 has been recorded for CC1(Cl)C(=O)N(Cc2cc(F)cc(F)c2)c2cc(C(=O)NCc3c(F)cc(F)cc3F)ccc21 (stereo not drawn) [Example 148] ?
Reply | 5.00 to 6.00

Ask | May I ask what pEC50 has been recorded for CC1(C)C(=O)N(Cc2cc(F)cc(F)c2)c2cc(C(=O)NCc3cccc(C#N)c3)ccc21 ?
Reply | < 5.00

Ask | May I ask what pEC50 has been recorded for CC1(C)C(=O)N(Cc2c(F)cccc2Cl)c2cc(C(=O)NCc3cc4ccc(F)cc4o3)ccc21 ?
Reply | ≥ 6.00

Ask | May I ask what pEC50 has been recorded for CC1(Cl)C(=O)N(Cc2c(F)cccc2Cl)c2cc(C(=O)NCc3c(F)cc(F)cc3F)ccc21 (stereo not drawn) ?
Reply | ≥ 6.00

----------
The reader will find reported pEC50 values listed item by item below.
- target under test: hSTING (H232) (Homo sapiens)
- Sequence (Q86WV6 whole entry): as the sequence (Q86WV6 whole entry R71H/G230A/H232R/R293Q) above, with H71R, A230G, R232H, Q293R counted along it
- assay info: Luciferase reporter assay in HEK293T-hSTING-Luciferase cells (H232/REF polymorph)
- condition notes: EC50 range
pEC50: −log10 of the molar value.

Consider the worked cases shown below.
CCn1nc(C)cc1CN1C(=O)C(C)(C)c2ccc(C(=O)NCc3cc4cc(F)ccc4o3)cc21: ≥ 6.00
Cc1cc(CN2C(=O)C(C)(C)c3ccc(C(=O)NCc4c(F)cc(F)cc4F)cc32)n(C)n1: 5.00 to 6.00

Ask | May I ask what pEC50 has been recorded for CC1(C)CN(C(=O)Cc2ccccc2)c2cc(C(=O)NCc3c(F)cc(F)cc3F)ccc21 ?
Reply | < 5.00

Ask | May I ask what pEC50 has been recorded for CC1(C)C(=O)N(Cc2cc(F)cc(F)c2)c2nc(C(=O)NCc3ccccc3)ccc21 ?
Reply | 5.00 to 6.00

Ask | May I ask what pEC50 has been recorded for Cc1cccc(CN2C(=O)C(C)(C)c3ccc(C(=O)NCc4c(F)cc(F)cc4F)cc32)c1 ?
Reply | 5.00 to 6.00
